assay: Cmax in rat plasma at 5 mg/kg, iv; format: ADME, organism-based; design: route intravenous, dose 5 mg/kg
Endpoint label: Cmax (ng/mL)

smiles=c1cc(CNc2cc3c(cn2)[nH]c2ccccc23)cc(Oc2ccc3c(c2)OCO3)c1 endpoint_label=Cmax result=189

###

system: A2780S; test: Antiproliferative activity against human A2780S cells assessed as reduction in cell viability measured after 24 hrs by MTT assay; type: functional, cell-based
Endpoint label: IC50

smiles=COc1ccc(CNc2cc3c(cn2)[nH]c2ccccc23)cn1 measured_target=A2780S result="> 500 nM"
smiles=COc1ccc(Oc2cccc(CNc3cc4c(cn3)[nH]c3ccccc34)c2)cc1 measured_target=A2780S result="12 nM"
smiles=CCCOc1cccc(CNc2cc3c(cn2)[nH]c2ccccc23)c1 measured_target=A2780S result="> 500 nM"
smiles=c1ccc(COc2cccc(CNc3cc4c(cn3)[nH]c3ccccc34)c2)cc1 measured_target=A2780S result="> 500 nM"
smiles=CC(=O)Nc1cccc(Oc2cccc(CNc3cc4c(cn3)[nH]c3ccccc34)c2)c1 measured_target=A2780S result="58 nM"
smiles=c1cc(CNc2cc3c(cn2)[nH]c2ccccc23)cc(Oc2ccc3c(c2)OCCO3)c1 measured_target=A2780S result="> 500 nM"
smiles=COCCOc1cccc(CNc2cc3c(cn2)[nH]c2ccccc23)c1 measured_target=A2780S result="> 500 nM"
smiles=Fc1cccc(Oc2cccc(CNc3cc4c(cn3)[nH]c3ccccc34)c2)c1 measured_target=A2780S result="41 nM"
smiles=c1ccc2c(CNc3cc4c(cn3)[nH]c3ccccc34)cccc2c1 measured_target=A2780S result="> 500 nM"
smiles=CC(C)=CCOc1cccc(CNc2cc3c(cn2)[nH]c2ccccc23)c1 measured_target=A2780S result="> 500 nM"
smiles=c1ccc2c(CNc3cc4c(cn3)[nH]c3ccccc34)c[nH]c2c1 measured_target=A2780S result="> 500 nM"
smiles=CCCCOc1cccc(CNc2cc3c(cn2)[nH]c2ccccc23)c1 measured_target=A2780S result="> 500 nM"
smiles=CCCCNc1cc2c(cn1)[nH]c1ccccc12 measured_target=A2780S result="175 nM"
smiles=N#Cc1ccccc1Oc1cccc(CNc2cc3c(cn2)[nH]c2ccccc23)c1 measured_target=A2780S result="> 500 nM"
smiles=Cc1cccc(Oc2cccc(CNc3cc4c(cn3)[nH]c3ccccc34)c2)c1 measured_target=A2780S result="44 nM"
smiles=CC(C)=CCNc1cc2c(cn1)[nH]c1ccccc12 measured_target=A2780S result="> 500 nM"
smiles=c1ccc(Oc2ccc(Oc3cccc(CNc4cc5c(cn4)[nH]c4ccccc45)c3)cc2)cc1 measured_target=A2780S result="> 500 nM"
smiles=CC(C)Oc1cccc(CNc2cc3c(cn2)[nH]c2ccccc23)c1 measured_target=A2780S result="> 500 nM"
smiles=c1ccc2c(c1)[nH]c1cnc(NCc3ccsc3)cc12 measured_target=A2780S result="63 nM"
smiles=COc1cccc(Oc2cccc(CNc3cc4c(cn3)[nH]c3ccccc34)c2)c1 measured_target=A2780S result="148 nM"
smiles=c1ccc2c(c1)[nH]c1cnc(NCc3ccoc3)cc12 measured_target=A2780S result="93 nM"
smiles=CC(C)COc1cccc(CNc2cc3c(cn2)[nH]c2ccccc23)c1 measured_target=A2780S result="> 500 nM"

###

system: MCF7; test: Antiproliferative activity against human MCF7 cells assessed as reduction in cell viability measured after 24 hrs by MTT assay; format: functional, cell-based; settings: MCF7, 24 h
Endpoint label: IC50

smiles=CC(C)Oc1cccc(CNc2cc3c(cn2)[nH]c2ccccc23)c1 endpoint_label=IC50 result="> 500 nM"
smiles=Cc1ccc(Oc2cccc(CNc3cc4c(cn3)[nH]c3ccccc34)c2)cc1 endpoint_label=IC50 result="39 nM"
smiles=CCCCOc1cccc(CNc2cc3c(cn2)[nH]c2ccccc23)c1 endpoint_label=IC50 result="> 500 nM"
smiles=COCCOc1cccc(CNc2cc3c(cn2)[nH]c2ccccc23)c1 endpoint_label=IC50 result="> 500 nM"
smiles=c1cc(CNc2cc3c(cn2)[nH]c2ccccc23)cc(OC2CCC2)c1 endpoint_label=IC50 result="> 500 nM"
smiles=Clc1ccc(Oc2cccc(CNc3cc4c(cn3)[nH]c3ccccc34)c2)cc1 endpoint_label=IC50 result="48 nM"
smiles=c1ccc2c(c1)[nH]c1cnc(NCc3ccsc3)cc12 endpoint_label=IC50 result="73 nM"
smiles=CC(=O)Nc1ccccc1Oc1cccc(CNc2cc3c(cn2)[nH]c2ccccc23)c1 endpoint_label=IC50 result="> 500 nM"
smiles=CC(C)COc1cccc(CNc2cc3c(cn2)[nH]c2ccccc23)c1 endpoint_label=IC50 result="> 500 nM"
smiles=CCCOc1cccc(CNc2cc3c(cn2)[nH]c2ccccc23)c1 endpoint_label=IC50 result="> 500 nM"
smiles=N#Cc1ccccc1Oc1cccc(CNc2cc3c(cn2)[nH]c2ccccc23)c1 endpoint_label=IC50 result="> 500 nM"
smiles=c1cc2ccc3cccc4c(CNc5cc6c(cn5)[nH]c5ccccc56)cc(c1)c2c34 endpoint_label=IC50 result="> 500 nM"
smiles=c1ccc(Oc2cccc(CNc3cc4c(cn3)[nH]c3ccccc34)c2)cc1 endpoint_label=IC50 result="49 nM"
smiles=Fc1ccccc1Oc1cccc(CNc2cc3c(cn2)[nH]c2ccccc23)c1 endpoint_label=IC50 result="93 nM"

###

This section presents compounds with their documented pIC50 values.
test system: A2780S; assay: Cytotoxicity in human A2780S assessed as inhibition in cell growth measured after 24 hrs by MTT assay; format: functional, cell-based
pIC50: −log10 of the molar value.
Endpoint label: pIC50

compound=c1cc(CNc2cc3c(cn2)[nH]c2ccccc23)cc(Oc2ccc3c(c2)OCO3)c1 measured_target=A2780S endpoint_label=pIC50 result=7.79
compound="CC(=O)O[C@H]1C(=O)[C@@]2(C)[C@H]([C@H](OC(=O)c3ccccc3)[C@]3(O)C[C@H](OC(=O)[C@H](O)[C@@H](NC(=O)c4ccccc4)c4ccccc4)C(C)=C1C3(C)C)[C@]1(OC(C)=O)CO[C@@H]1C[C@@H]2O [PACLITAXEL]" measured_target=A2780S endpoint_label=pIC50 result=7.22

###

Quick reference: pIC50 of the listed items.
system: A2780S; assay: Antiproliferative activity against human A2780S cells assessed as reduction in cell viability measured after 24 hrs by MTT assay; format: functional, cell-based
pIC50: −log10 of the molar value.
Endpoint label: pIC50

smiles=c1ccc2cc(CNc3cc4c(cn3)[nH]c3ccccc34)ccc2c1 endpoint_label=pIC50 value_modifier=< result=6.30
smiles=Clc1cccc(Oc2cccc(CNc3cc4c(cn3)[nH]c3ccccc34)c2)c1 endpoint_label=pIC50 value_modifier== result=7.22
smiles=CCCNc1cc2c(cn1)[nH]c1ccccc12 endpoint_label=pIC50 value_modifier=< result=6.30
smiles=CC(C)(C)CC(C)(C)c1ccc(Oc2cccc(CNc3cc4c(cn3)[nH]c3ccccc34)c2)cc1 endpoint_label=pIC50 value_modifier=< result=6.30
smiles=c1cc(CNc2cc3c(cn2)[nH]c2ccccc23)cc(OC2CCC2)c1 endpoint_label=pIC50 value_modifier=< result=6.30
smiles=c1ccc2c(c1)[nH]c1cnc(NCC3CCCCC3)cc12 endpoint_label=pIC50 value_modifier=< result=6.30
smiles=c1ccc2ncc(CNc3cc4c(cn3)[nH]c3ccccc34)cc2c1 endpoint_label=pIC50 value_modifier=< result=6.30
smiles=c1ccc(-c2cccc(CNc3cc4c(cn3)[nH]c3ccccc34)c2)cc1 endpoint_label=pIC50 value_modifier=< result=6.30
smiles=c1cc(CNc2cc3c(cn2)[nH]c2ccccc23)cc(Oc2ccc3c(c2)OCO3)c1 endpoint_label=pIC50 value_modifier== result=8.10
smiles=CCOc1cccc(CNc2cc3c(cn2)[nH]c2ccccc23)c1 endpoint_label=pIC50 value_modifier=< result=6.30
smiles=c1cc(CNc2cc3c(cn2)[nH]c2ccccc23)cc(OC2CCCC2)c1 endpoint_label=pIC50 value_modifier=< result=6.30
smiles=c1cc(CNc2cc3c(cn2)[nH]c2ccccc23)cc(OCC2CC2)c1 endpoint_label=pIC50 value_modifier=< result=6.30
smiles=Fc1ccc(Oc2cccc(CNc3cc4c(cn3)[nH]c3ccccc34)c2)cc1 endpoint_label=pIC50 value_modifier== result=7.55
smiles=CSc1ccc(Oc2cccc(CNc3cc4c(cn3)[nH]c3ccccc34)c2)cc1 endpoint_label=pIC50 value_modifier=< result=6.30
smiles=N#Cc1cccc(Oc2cccc(CNc3cc4c(cn3)[nH]c3ccccc34)c2)c1 endpoint_label=pIC50 value_modifier=< result=6.30
smiles=Cc1ccccc1Oc1cccc(CNc2cc3c(cn2)[nH]c2ccccc23)c1 endpoint_label=pIC50 value_modifier== result=7.21
smiles=c1ccc(Oc2cccc(CNc3cc4c(cn3)[nH]c3ccccc34)c2)cc1 endpoint_label=pIC50 value_modifier== result=7.35
smiles=c1ccc(-c2ccc(CNc3cc4c(cn3)[nH]c3ccccc34)cc2)cc1 endpoint_label=pIC50 value_modifier=< result=6.30
smiles=CC(=O)Nc1ccccc1Oc1cccc(CNc2cc3c(cn2)[nH]c2ccccc23)c1 endpoint_label=pIC50 value_modifier=< result=6.30
smiles=c1cc2ccc3cccc4c(CNc5cc6c(cn5)[nH]c5ccccc56)cc(c1)c2c34 endpoint_label=pIC50 value_modifier=< result=6.30
smiles=Fc1ccccc1Oc1cccc(CNc2cc3c(cn2)[nH]c2ccccc23)c1 endpoint_label=pIC50 value_modifier== result=7.14
smiles=CC(=O)Nc1ccc(Oc2cccc(CNc3cc4c(cn3)[nH]c3ccccc34)c2)cc1 endpoint_label=pIC50 value_modifier== result=7.96
smiles=Cn1cccc1CNc1cc2c(cn1)[nH]c1ccccc12 endpoint_label=pIC50 value_modifier=< result=6.30
smiles=Clc1ccc(Oc2cccc(CNc3cc4c(cn3)[nH]c3ccccc34)c2)cc1 endpoint_label=pIC50 value_modifier== result=7.14
smiles=COc1ccccc1Oc1cccc(CNc2cc3c(cn2)[nH]c2ccccc23)c1 endpoint_label=pIC50 value_modifier=< result=6.30
smiles=COc1ccc(Oc2cccc(CNc3cc4c(cn3)[nH]c3ccccc34)c2)cc1OC endpoint_label=pIC50 value_modifier== result=6.58
smiles=Cc1ccc(Oc2cccc(CNc3cc4c(cn3)[nH]c3ccccc34)c2)cc1 endpoint_label=pIC50 value_modifier== result=7.26
smiles=FC(F)(F)c1ccc(Oc2cccc(CNc3cc4c(cn3)[nH]c3ccccc34)c2)cc1 endpoint_label=pIC50 value_modifier== result=7.07
smiles=CC(C)CCOc1cccc(CNc2cc3c(cn2)[nH]c2ccccc23)c1 endpoint_label=pIC50 value_modifier=< result=6.30
smiles=c1ccc(-c2ccc(Oc3cccc(CNc4cc5c(cn4)[nH]c4ccccc45)c3)cc2)cc1 endpoint_label=pIC50 value_modifier=< result=6.30
smiles=COc1cc(Oc2cccc(CNc3cc4c(cn3)[nH]c3ccccc34)c2)cc(OC)c1OC endpoint_label=pIC50 value_modifier=< result=6.30
smiles=N#Cc1ccc(Oc2cccc(CNc3cc4c(cn3)[nH]c3ccccc34)c2)cc1 endpoint_label=pIC50 value_modifier== result=7.22
smiles=CC(C)CNc1cc2c(cn1)[nH]c1ccccc12 endpoint_label=pIC50 value_modifier=< result=6.30
smiles=c1csc(CNc2cc3c(cn2)[nH]c2ccccc23)c1 endpoint_label=pIC50 value_modifier=< result=6.30
smiles=c1cc(CNc2cc3c(cn2)[nH]c2ccccc23)cc(Oc2ccc3ncccc3c2)c1 endpoint_label=pIC50 value_modifier== result=7.11
smiles=Clc1ccccc1Oc1cccc(CNc2cc3c(cn2)[nH]c2ccccc23)c1 endpoint_label=pIC50 value_modifier== result=7.37
smiles=COc1ccc(COc2cccc(CNc3cc4c(cn3)[nH]c3ccccc34)c2)cc1 endpoint_label=pIC50 value_modifier=< result=6.30
smiles=c1cncc(Oc2cccc(CNc3cc4c(cn3)[nH]c3ccccc34)c2)c1 endpoint_label=pIC50 value_modifier== result=6.64
smiles=c1ccc2c(c1)[nH]c1cnc(NC3CCCC3)cc12 endpoint_label=pIC50 value_modifier== result=7.04
